EXPERIMENTAL PROTOCOL: recombinant barcode read abundance after kanamycin selection (control-corrected) (log10(CPM+1)); higher = more efficient recombination; sequences stand for … in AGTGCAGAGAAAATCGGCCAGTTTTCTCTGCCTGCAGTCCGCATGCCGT…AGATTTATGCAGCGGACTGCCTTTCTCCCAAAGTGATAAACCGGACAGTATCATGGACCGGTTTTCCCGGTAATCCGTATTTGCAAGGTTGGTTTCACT; site = the 11-nt target
READOUT TYPE: recombinant barcode read abundance (log10)

SEQUENCE RECORD | VALUE OBSERVED
AGAGAACCTTGGGTTCTAACCTGTTGCCT (site AGAGAACCTAG) | 2.33
AAGGTGTCTTGGGTTCTAACCTGTTGCCT (site AAGGTGTCTAG) | 3.29
GACCAGTCTTGGGTTCTAACCTGTTGCGG (site GACCAGTCTCC) | 1.97
GATTCTCCTTGGGTTCTAACCTGTTGCTT (site GATTCTCCTAG) | 0.0621
TGGCACTCTTGGGTTCTAACCTGTTGCTT (site TGGCACTCTAA) | 1.02
TAGTACTCTTGGGTTCTAACCTGTTGCTC (site TAGTACTCTCA) | 0.429
ACGACTCCTTGGGTTCTAACCTGTTGCTG (site ACGCCTCCTCA) | 0.0825
GTAGTATCTTGGGTTCTAACCTGTTGCCT (site GTAGTAGCTAG) | 0.104
ACAAAAGCTTGGGTTCTAACCTGTTGCGG (site ACAAAAGCTCC) | 1.59
TAGGTCACTTGGGTTCTAACCTGTTGCAT (site TAGTTCACTAT) | 0.0621
GAGCGTACTTGGGTTCTAACCTGTTGCAT (site GAGGGTACTAT) | 0.0723
CTTCATCCTTGGGTTCTAACCTGTTGCCT (site CTTCAGCCTAG) | 0.0613
GTATCATCTTGGGTTCTAACCTGTTGCCT (site GTATCACCTAG) | 0.942
CCGTTGTCTTGGGTTCTAACCTGTTGCTA (site CCGTTGTCTTA) | 0.48
AGTAAGACTTGGGTTCTAACCTGTTGCGT (site AGTAAGACTAT) | 1.22
TGGGTCCCTTGGGTTCTAACCTGTTGCTT (site TGAGTCCCTTA) | 0.272
CTCCATCCTTGGGTTCTAACCTGTTGCCT (site CTCCATGCTAG) | 0.0326
AATGTGTCTTGGGTTCTAACCTGTTGCCT (site AACGTGTCTAG) | 1.47
ATGAACCCTTGGGTTCTAACCTGTTGCGT (site TTGAACCCTAC) | 0.659
GACCAGTCTTGGGTTCTAACCTGTTGCGG (site GTCCAGGCTCC) | 0.128
TGGATTGCTTGGGTTCTAACCTGTTGCCT (site TGGATTGCTAG) | 0.74

---

EXPERIMENTAL PROTOCOL: recombinant barcode read abundance after kanamycin selection (control-corrected) (log10(CPM+1)); higher = more efficient recombination; sequences stand for … in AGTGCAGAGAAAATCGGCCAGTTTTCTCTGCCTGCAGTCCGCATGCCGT…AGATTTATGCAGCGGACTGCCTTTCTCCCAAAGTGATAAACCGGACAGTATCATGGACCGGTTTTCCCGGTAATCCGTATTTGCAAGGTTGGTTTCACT; site = the 11-nt target
Please mark Met if the recorded recombinant barcode read abundance (log10) is equal to or greater than 0.2, and Not met if it falls below.

SEQUENCE RECORD | ANSWER LABEL
GTCGGCACTTGGGTTCTAACCTGTTGCCT (site GTCGGTACTAG) | Met
TACAGACCTTGGGTTCTAACCTGTTGCAG (site TACAGACCTCT) | Met
CACACCACTTGGGTTCTAACCTGTTGCCT (site CACATCACTAG) | Not met
CTGCGTGCTTGGGTTCTAACCTGTTGCCT (site CCGCGTGCTAG) | Met
ACGGGTGCTTGGGTTCTAACCTGTTGCCT (site ACGGTTGCTAG) | Not met
CTTGCTCCTTGGGTTCTAACCTGTTGCAT (site AGACGGACTTG) | Not met
TACCCGTCTTGGGTTCTAACCTGTTGCTT (site TACCGGTCTAA) | Not met
ACCGTAGCTTGGGTTCTAACCTGTTGCCT (site ACCGTAGCTAG) | Met
CTGGAGTCTTGGGTTCTAACCTGTTGCCT (site CTGGCGTCTAG) | Met
AGTGAATCTTGGGTTCTAACCTGTTGCCT (site AGGGAATCTAG) | Met

---

Listed here: items and their measured recombinant barcode read abundance (log10).
EXPERIMENTAL PROTOCOL: recombinant barcode read abundance after kanamycin selection (control-corrected) (log10(CPM+1)); higher = more efficient recombination; sequences stand for … in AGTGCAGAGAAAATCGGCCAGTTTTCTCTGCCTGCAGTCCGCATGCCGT…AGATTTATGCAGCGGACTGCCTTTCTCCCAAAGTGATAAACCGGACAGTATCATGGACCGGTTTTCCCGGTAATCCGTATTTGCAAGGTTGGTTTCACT; site = the 11-nt target
READOUT TYPE: recombinant barcode read abundance (log10)

SEQUENCE RECORD | VALUE OBSERVED
CAGAACACTTGGGTTCTAACCTGTTGCCT (site CAGAACACTAG) | 1.94
CAAGTCCCTTGGGTTCTAACCTGTTGCCT (site GAAGTCCCTAG) | 0.207
ACAAGCACTTGGGTTCTAACCTGTTGCCT (site ACCATCACTAG) | 0.2
TAGGCTGCTTGGGTTCTAACCTGTTGCAT (site TTGGGTGCTAT) | 0.0414
AGTCTAGCTTGGGTTCTAACCTGTTGCGG (site AGGATAGCTCC) | 0.479
CATCCGTCTTGGGTTCTAACCTGTTGCCT (site CATCCGTCTAG) | 1.21
GGCCGGACTTGGGTTCTAACCTGTTGCCT (site GGCCGGACTAG) | 0.937
CTCATTCCTTGGGTTCTAACCTGTTGCAT (site CTCATTCCTAT) | 0.523
TGAGGGGCTTGGGTTCTAACCTGTTGCCT (site TGAGTGGCTAG) | 0.197
AGCGGCCCTTGGGTTCTAACCTGTTGCCT (site AGCGGCCCTAG) | 1.26

---

Listed here: items and their measured recombinant UMI read abundance (log10).
EXPERIMENTAL PROTOCOL: recombinant UMI read abundance after kanamycin selection (control-corrected) (log10(CPM+1)); higher = more efficient recombination; extreme values may be limits of the assay; sequences stand for … in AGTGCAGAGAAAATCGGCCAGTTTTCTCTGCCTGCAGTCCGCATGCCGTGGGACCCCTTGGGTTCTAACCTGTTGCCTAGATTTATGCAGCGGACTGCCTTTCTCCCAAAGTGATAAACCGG…AGGTTGGTTTCACT; site = the 11-nt donor
READOUT TYPE: recombinant UMI read abundance (log10)

SEQUENCE RECORD | READOUT TYPE | VALUE OBSERVED
CGATCACCATGGACCGGTTTTCCCGGTAATCCGTATTTGCT (site CGATCAACTAG) | recombinant UMI read abundance (log10) | 0
AATGTAGCATGGACCGGTTTTCCCGGTAATCCGTATTTGCT (site AATGTAACTAG) | recombinant UMI read abundance (log10) | 0
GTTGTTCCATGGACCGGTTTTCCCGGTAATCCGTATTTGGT (site GTGGTTCCTAC) | recombinant UMI read abundance (log10) | 0.508
CACGCGCCATGGACCGGTTTTCCCGGTAATCCGTATTTGTG (site CAAGCGCCTCA) | recombinant UMI read abundance (log10) | 0.00364
GAAGATGCATGGACCGGTTTTCCCGGTAATCCGTATTTGTT (site GAAGATTCTAA) | recombinant UMI read abundance (log10) | 0

---

EXPERIMENTAL PROTOCOL: recombinant barcode read abundance after kanamycin selection (control-corrected) (log10(CPM+1)); higher = more efficient recombination; sequences stand for … in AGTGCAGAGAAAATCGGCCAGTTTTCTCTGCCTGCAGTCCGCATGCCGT…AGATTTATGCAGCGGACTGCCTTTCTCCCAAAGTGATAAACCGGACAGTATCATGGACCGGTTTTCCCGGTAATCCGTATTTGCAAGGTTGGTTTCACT; site = the 11-nt target
Kindly note that classification relies on recombinant barcode read abundance (log10) with these boundaries: group 1 = under 0.1, group 2 = from 0.1 up to 0.5, group 3 = 0.5 and over

SEQUENCE RECORD | ANSWER LABEL
GATCAATCTTGGGTTCTAACCTGTTGCCT (site GATCAATCTAG) | group 2
CTAAGGCCTTGGGTTCTAACCTGTTGCCT (site CTAAGGCCTAG) | group 2
ATCGCCTCTTGGGTTCTAACCTGTTGCCT (site ATCGCCTCTAG) | group 3
GGTGAGCCTTGGGTTCTAACCTGTTGCGT (site CACACTACTCA) | group 1
CGCCACACTTGGGTTCTAACCTGTTGCCT (site CGTCACACTAG) | group 3
GGACGGCCTTGGGTTCTAACCTGTTGCCT (site GGACGACCTAG) | group 3
CACTTCCCTTGGGTTCTAACCTGTTGCAT (site CACTTCCCTAT) | group 3
CCTAAGTCTTGGGTTCTAACCTGTTGCCA (site GACTTAACTAA) | group 2
CACATACCTTGGGTTCTAACCTGTTGCCG (site CACATACCTAC) | group 1
TCACTTGCTTGGGTTCTAACCTGTTGCCT (site TCACCTGCTAG) | group 1
